All figures here come from PubChem BioAssay (NCI).

Give TGI for every item shown.
- System: DMS 114 small cell lung
- assay-info: NCI tumour cell line growth inhibition, 48 h
Give bare numbers, in µM.

{"columns": ["compound", "uom", "TGI"],
 "data": [
  ["CC[CH2][Sn]([CH2]CC)([O]C(=O)Cc1ccc(F)cc1)[O][Sn]([CH2]CC)([CH2]CC)[O]C(=O)Cc1ccc(F)cc1", "µM", 0.119],
  ["Cc1ccc(NC(=O)CC2C(=O)Nc3ccccc3S2=O)c(C)c1 (configuration not stated)", "µM", 34.4]
]}

Switching to the query record.
Problem: Entry CC(C)C1COC(c2ccc3ccccc3c2-c2c(O[Si](C)(C)C(C)(C)C)ccc3ccccc23)=N1 (configuration not stated) , system DMS 114 small cell lung: what TGI was measured?
Result: 30.9

###

- System: K-562 leukemia
- assay-info: NCI tumour cell line growth inhibition, 48 h
Assign GI50 to each entry below.

{"columns": ["sample-smiles", "measurement-target", "GI50"],
 "data": [
  ["CCOCCOC[C@H]1CCCN(c2ccnc3sc(C(N)=O)c(N)c23)C1", "K-562 leukemia", "8.44 µM"]
]}

Batch request: GI50 for each of the following compounds.
1. C[C@@H]1OCC2(CCN(c3cnc(Sc4ccnc(N)c4Cl)c(N)n3)CC2)[C@@H]1N
2. O=S(=O)(Nc1ccccn1)c1ccc(N=Nc2ccc(O)c3ncccc23)cc1
3. COC1=C(OC)[C@]2(OC)c3c(O)c(OC)c4c(c3O[C@@]23O[C@@H](c2ccccc2)CC=C3C1=O)[C@@H](O)C[C@H](c1ccccc1)O4
4. O=[N+]([O-])c1cc2c(c([N+](=O)[O-])c1)Nc1ccccc1O2
5. C/C(=C\c1ccn(-c2ccc(N)cc2F)n1)[C@@H]1C[C@@H]2O[C@]2(C)CCC[C@H](C)[C@H](O)[C@@H](C)C(=O)C(C)(C)[C@@H](O)CC(=O)O1
6. O=C(O)c1ccccc1Nc1ccc2nnc(-c3ccncc3)n2n1
7. COc1cnc2c(c1)C(=O)c1c-2n(CCCNC(C)C)c(=O)c2cc([N+](=O)[O-])ccc12
8. Nc1ccccc1C#Cc1ccccc1C#Cc1cnccn1

Result:
1. 0.397 µM
2. 0.734 µM
3. 0.0972 µM
4. 4.64 µM
5. 0.0197 µM
6. 15.1 µM
7. 0.0443 µM
8. 26.1 µM

I'm hoping you can list GI50 for every compound here, please.
1. C=C1C(=O)O[C@H]2[C@H]1CC/C(COC(=O)NCc1cc(OC)cc(OC)c1)=C\CC[C@@]1(C)O[C@@H]21
2. Cc1nn(C)c2cc(N(C)c3ccnc(Nc4cccc(S(N)(=O)=O)c4)n3)ccc12
3. c1ccc2c3c(ccc2c1)-c1c(ccc2c(NCCCCN4CCCCC4)cccc12)C3
4. Oc1c(I)cc(I)cc1CN(Cc1ccccn1)Cc1ccccn1
5. COc1cc(N2CCC(N3CCN(C)CC3)CC2)ccc1Nc1ncc(Cl)c(Nc2ccccc2S(=O)(=O)C(C)C)n1
6. C[CH2][Sn]([CH2]C)([O]C(=O)c1ccc(F)cc1)[O][Sn]([CH2]C)([CH2]C)[O]C(=O)c1ccc(F)cc1
7. CCN(CC)CC[n+]1cc2cc(OC)c(OC)cc2c2ccc3cc4c(cc3c21)OCO4
8. CC[CH2][Sn]([CH2]CC)([O]C(=O)Cc1ccc(F)cc1)[O][Sn]([CH2]CC)([CH2]CC)[O]C(=O)Cc1ccc(F)cc1

Result:
1: 1.56 µM; 2: 2.13 µM; 3: 1.67 µM; 4: 0.548 µM; 5: 1.67 µM; 6: 20.1 µM; 7: 0.288 µM; 8: 0.0266 µM

I have 2 compounds here; please give me GI50 for each one.
1. Cc1cc2nc(C(Cl)Cl)nc(-c3ccccc3)n2n1
2. Oc1c(CN2CCN(c3ccccc3F)CC2)cc(Br)c2cccnc12

Result:
4.61 µM
0.366 µM
